Values were extracted from ChEMBL document CHEMBL5329165.

// reported CC50 per item
- runDescription: Cytotoxicity against human HepG2 cells assessed as reduction in cell viability by alamar blue assay
- Assay type: toxicity, cell-based
endpointName: CC50

• CCCCCCCC(=O)Nc1nc2ccccc2c2ccccc12 = > 50 µM
• O=C(Cc1ccc(Br)cc1)Nc1nc2ccccc2c2ccccc12 = > 50 µM
• O=C(Cc1ccccc1)Nc1nc2ccccc2c2ccccc12 = > 50 µM
